System: NCI-H23 lung
measurement protocol: NCI tumour cell line growth inhibition, 48 h
quantity measured: TGI (µM)
Give the value, in units of µM, as a plain number.

compound: Cc1c2ccncc2cc2c1[nH]c1ccccc12
assayed system: NCI-H23 lung
endpoint value: 15.9

Reported TGI, compound CN(CCCCCl)P(=O)(OCCS(=O)(=O)CC(NC(=O)CCC(N)C(=O)O)C(=O)NC(C(=O)O)c1ccccc1)OCC1OC(n2ccc(N)nc2=O)C(F)(F)C1O (stereo not drawn) : ____ 16.8

Suppose we examine the compound `O=[N+]([O-])c1cc(Cl)c2[nH]c3c(Cl)cc([N+](=O)[O-])cc3c2c1` ; what TGI value has been reported? 28.2

Please look up its TGI: `c1ccc2c(c1)c1c(n2CCOCCN2CCCC2)CCCC1` 65.2

TGI lookup needed for CC(=O)Oc1ccc(C23c4ccccc4C2(OC(C)=O)c2cc(OC(C)=O)ccc23)cc1 (stereo not drawn) , thanks. 28.5

State the recorded TGI for this entry: N/N=C1\C(=O)N(C2CCCCCC2)C(=O)C1C(=O)NC1CCCCCC1 (stereo not drawn) 52.1

Which TGI is reported for this compound? `O=[N+]([O-])c1ccc2c(c1)N([O-])C1(CCCCC1)[N+]2=O` 66.3

So what's the measured TGI for this one? `CCCCCCCCOC(=O)CC[C@@H](C)[C@H]1CC[C@H]2[C@@H]3[C@H](OC(=O)CCN)C[C@@H]4C[C@H](OC(=O)CCN)CC[C@]4(C)[C@H]3C[C@H](OC(=O)CCN)[C@]12C` 29.9

Quick one: TGI for `CS(=O)(=O)OCCN(CCOS(C)(=O)=O)c1ccc(C=Nc2cccc(Cl)c2)cc1` ? 10.6

Entry `CSc1ccc(-c2cc(-c3nc4ccccc4[nH]3)no2)cc1` : reported TGI = ? 66

Request the reported TGI associated with `Cc1[nH]nc(C(F)(F)F)c1N=NN(C)C` 21.9

Can you look up the measured TGI of `O=S(=O)(NCCNc1nccc(-c2c(-c3ccc(F)c(O)c3)nc3sccn23)n1)c1ccc(F)cc1` for me? 22.4

Suppose we examine the compound CC(C)(C)c1cc(C(O)(C(F)(F)F)C(F)(F)F)c2c(c1)C(C(F)(F)F)(C(F)(F)F)OC(C)(C(C)(C)C)N2 (stereo not drawn) ; what TGI value has been reported? 7.41

Give the measured TGI of C=C1C(=O)OC2C/C(C)=C/CC/C(C)=C/CCC3(COC(C)=O)OC3CC12 (stereo not drawn) . 26
